In this section we review reported Activity values for a set of compounds.
test system: Rattus norvegicus; experiment: Antiinflammatory activity against carrageenan/Evans blue dye-induced pleural effusion rat model assessed as reduction in pleural fluid volume at 0.4 mmol/kg, po administered 1 hr prior challenge measured 6 hrs post challenge relative to control; type: functional; design: scale not given: the % may be the effect or the level left
Please state the figure in %; there is no need to write the unit.

O=C(O)CCn1ncc(-c2ccccc2)n1 | 42
O=C(O)/C=C/c1cnn(-c2cccc(Cl)c2)n1 | 18
O=C(O)CCc1ncn(-c2cc(Cl)cc(Cl)c2)n1 | 5.2
CC(=O)c1nn(CCC(=O)O)nc1-c1ccccc1 | 2.6
O=C(O)CCc1ncn(-c2cccc(Cl)c2)n1 | 7.5

The compound "O=C(O)CCn1cnc(-c2ccccc2)n1" showed Activity equal to -3.7

So, "O=C(O)/C=C/c1cnn(-c2ccccc2)n1" ? Its Activity was 13

For record "O=C(O)CCn1cc(-c2cccnc2)nn1" the listed Activity is 5.1

// Activity lookup, compound = "CC(=O)Nc1cccc(-c2cn(CCC(=O)O)nn2)c1" , result: 9.9

Per the records, this compound ( "O=C(O)CCn1cnc(-c2cccc(Cl)c2)n1" ) has Activity equal to 1.1

---

test system: Rattus norvegicus; experiment: […] in Freund's adjuvant-induced Lewis rat arthritis model assessed as reduction of uninjected paw volume at 0.2 mmol/kg, po qd administered on day 0 to day 21 of adjuvant challenge measured on day 21 by plethysmometry relative to control; type: organism-based; parameters: scale not given: the % may be the effect or the level left; conditions: in vivo
Listing of entries alongside the reported Activity.
# number only, unit % dropped from output

Here are 8 compounds together with their reported answers.
O=C(O)CCc1cnn(-c2cccc(Br)c2)n1 | 39
O=C(O)CCn1nc(-c2ccccc2)c(-c2ccccc2)n1 | 34
O=C(O)CCc1nnn(-c2cccc(Br)c2)n1 | 22
CC(=O)Nc1cccc(-c2cnn(CCC(=O)O)n2)c1 | -24
O=C(O)CCc1cn(-c2cccc(Cl)c2)nn1 | 21
O=C(O)CCn1cc(-c2ccccc2)nn1 | -12
O=C(O)CCn1ncc(-c2cccc(Cl)c2)n1 | 26
O=C(O)/C=C/c1cnn(-c2cccc(Br)c2)n1 | 16

Param item: "CCOc1cccc(-c2cn(CCC(=O)O)nn2)c1" ; param system: Rattus norvegicus; output Activity: -28

Entry "O=C(O)CCc1cnn(-c2ccccc2)n1" ; assay system Rattus norvegicus; Activity recorded at 36

For the compound "O=C(O)CCn1cc(-c2cccnc2)nn1" , the measured Activity on Rattus norvegicus was -30

The reported Rattus norvegicus Activity of "Cc1cccc(-c2ncn(CC(=O)O)n2)c1" is -13

---

tested on: Rattus norvegicus; test: Antiinflammatory activity in Freund's adjuvant-induced Lewis rat arthritis model assessed as reduction of paw volume at 0.2 mmol/kg, po qd administered on day 0 to day 21 of adjuvant challenge measured on day 7 by plethysmometry relative to control; type: functional; set-up: scale not given: the % may be the effect or the level left
Class Met: Activity at least 10%. Class Not met: Activity below 10%.

O=C(O)CCc1cnn(-c2cccc(Br)c2)n1 | Met
Cc1cccc(-c2ncn(CC(=O)O)n2)c1 | Not met
CCOc1cccc(-c2cn(CCC(=O)O)nn2)c1 | Not met
O=C(O)CCn1cc(-c2cccc(Br)c2)nn1 | Not met

Could you tell me if the measured Activity of "O=C(O)CCn1cc(-c2cccc(F)c2)nn1" reaches 10% or more?
Not met

Could you verify whether the entry "O=C(O)CCn1ncc(-c2ccccc2)n1" shows Activity of no less than 10%?
Met

I'd appreciate it if you could say whether "CC(=O)c1nn(CCC(=O)O)nc1-c1ccccc1" has Activity at least equal to 10%.
Met

Form field: Activity at least 10%? Entry: "Cc1cccc(-c2ncn(CCC(=O)O)n2)c1"
Not met

Please check the record "O=C(O)/C=C/c1cnn(-c2cccc(Br)c2)n1" and state if its Activity is at or above 10%.
Met

Check the entry "O=C(O)CCn1ncc(-c2cccc(Cl)c2)n1" : does Activity equal or exceed 10%?
Met

Tell me whether Activity is at least 10% here: "O=C(O)CCc1cn(-c2cccc(F)c2)nn1"
Met

Evaluate "O=C(O)CCc1nnn(-c2cccc(Br)c2)n1" : Activity at minimum 10%?
Met

---

# maps each entry to its Activity
system: Rattus norvegicus; assay: […] in Freund's adjuvant-induced Lewis rat arthritis model assessed as reduction of uninjected paw volume at 0.2 mmol/kg, po qd administered on day 0 to day 21 of adjuvant challenge measured on day 21 by plethysmometry relative to control; type: organism-based; parameters: scale not given: the % may be the effect or the level left; conditions: in vivo
Form entry: value (%) — number only.

Here is how some compounds turned out for Activity.
O=C(O)CCc1nc(-c2cccc(Br)c2)n[nH]1 | 30
O=C(O)CCn1cnc(-c2ccccc2)n1 | 10

Form: compound = "O=C(O)CCc1nc(-c2ccccc2)n[nH]1" ; Activity = 30

---

test system: Rattus norvegicus; experiment: Antiinflammatory activity against carrageenan/Evans blue dye-induced pleural effusion rat model assessed as reduction in pleural fluid volume at 0.4 mmol/kg, po administered 1 hr prior challenge measured 6 hrs post challenge relative to control; format: functional; parameters: scale not given: the % may be the effect or the level left
Here, each record is paired with measured Activity data.
Report the value in % with no unit label.

Some entries whose results are on file:
O=C(O)CCc1nnn(-c2cccc(Br)c2)n1 | 21
CCCCC1C(=O)N(c2ccccc2)N(c2ccccc2)C1=O [PHENYLBUTAZONE] | 28
O=C(O)CCn1cc(-c2cccc(F)c2)nn1 | 1.7

Looking up "O=C(O)CCn1cc(-c2cccc(Cl)c2)nn1" , I see its Activity listed as -1.4

// "CC(=O)Nc1cccc(-c2cnn(CCC(=O)O)n2)c1" : Activity value = -3.2

The recorded Activity for entry "O=C(O)CCc1nc(-c2cccc(Cl)c2)n[nH]1" equals 2.9

Input "O=C(O)CCn1cc(-c2ccccc2)nn1" . Output Activity: 0

Reported Activity for "Cc1cccc(-c2cn(CCC(=O)O)nn2)c1" was 0

---

tested on: Rattus norvegicus; assay: […] in Freund's adjuvant-induced Lewis rat arthritis model assessed as reduction of uninjected paw volume at 0.2 mmol/kg, po qd administered on day 0 to day 21 of adjuvant challenge measured on day 21 by plethysmometry relative to control; assay type: organism-based; parameters: scale not given: the % may be the effect or the level left; settings: in vivo
measurementLabel: Activity (%)
Hi! Could you send only the number? It should be in %, unit omitted.

Answered examples (2):
O=C(O)CCCn1ncc(-c2ccccc2)n1 | 1.4
CCCCC1C(=O)N(c2ccccc2)N(c2ccccc2)C1=O | 36

Notebook: "Cc1cccc(-c2cn(CCC(=O)O)nn2)c1" , Activity read as 22

The compound "O=C(O)CCc1ncn(-c2cc(Cl)cc(Cl)c2)n1" showed Activity equal to 71

"CC(=O)c1nn(CCC(=O)O)nc1-c1ccccc1" yielded Activity of -30

Value of Activity reported for the compound "O=C(O)CCn1ncc(-c2cc(Cl)cc(Cl)c2)n1" is 38

Recorded Activity (compound "Nc1cccc(-c2cn(CCC(=O)O)nn2)c1" ): -6.7

get_value(item= "O=C(O)CCc1ncn(-c2ccccc2)n1" , readout=Activity) returns -15

Entry "CC(=O)Nc1cccc(-c2cn(CCC(=O)O)nn2)c1" , Activity reported as -19

The reported Activity of the compound "O=C(O)CCc1cnn(-c2cccc(Cl)c2)n1" was 11

Query "O=C(O)CCn1ncc(-c2cccc(Br)c2)n1" yields Activity of 25

Summary for this compound, "O=C(O)CCc1cn(-c2cccc(F)c2)nn1" : Activity is -2

Lab note: measured Activity of "O=C(O)Cn1ncc(-c2ccccc2)n1" was 45

Entry under test: "O=C(O)CCn1cc(-c2cccc(Cl)c2)nn1" . Its Activity was -8.2

---

tested on: Rattus norvegicus; assay: Antiinflammatory activity against carrageenan/Evans blue dye-induced pleural effusion rat model assessed as reduction in pleural fluid volume at 0.4 mmol/kg, po administered 1 hr prior challenge measured 6 hrs post challenge relative to control; type: functional; design: scale not given: the % may be the effect or the level left
Returns Fulfilled if the recorded Activity is greater than or equal to 10%, and Not fulfilled otherwise.

Worked cases, answers included:
O=C(O)Cn1ncc(-c2ccccc2)n1 | Not fulfilled
Nc1cccc(-c2cn(CCC(=O)O)nn2)c1 | Not fulfilled
O=C(O)CCc1cn(-c2ccccc2)nn1 | Not fulfilled
O=C(O)CCn1cnc(-c2cccc(Br)c2)n1 | Not fulfilled

Would you say "CN(C)c1nn(CCC(=O)[O-])nc1-c1ccccc1.[Na+]" shows Activity at minimum 10%?
Not fulfilled

Threshold query (Activity >= 10%) on "Cc1cccc(-c2ncn(CCC(=O)O)n2)c1"
Not fulfilled

Item "Cc1cccc(-c2cnn(CCC(=O)O)n2)c1" with Activity of 10% or above?
Not fulfilled

Identify whether the reported Activity of the following molecule is 10% or greater: "O=C(O)CCn1ncc(-c2cccc(Br)c2)n1"
Fulfilled

Is reported Activity greater than or equal to 10% here: "Cc1cccc(-c2ncn(CC(=O)O)n2)c1"
Not fulfilled

Can "O=C(O)CCc1nc(-c2cccc(Br)c2)n[nH]1" be said to have Activity at or above 10%?
Not fulfilled

Does "CCOc1cccc(-c2cn(CCC(=O)O)nn2)c1" have a reported Activity of at least 10%?
Not fulfilled

Quick check, Activity >= 10%? "Cc1cccc(-c2n[nH]c(CCC(=O)O)n2)c1"
Not fulfilled
